Origin of measurements: PubChem BioAssay AID1159580

Assay: chemical genetic growth profiling, strain panel (AID 1159580);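 note: tested at 20 µM; growth read once vehicle control cultures reached saturation at 30 °C; 1 = growth at the plate median or of vehicle wells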
Conditions: S. cerevisiae deletion strains, growth OD, locus YHR027C, strain rpn1, stronger effect = lower value
The campaign covered roughly 5,500 compounds. About 2,000 (36%) were called active. About 18% were inconclusive and are not listed. Some of the results follow.
Decide using normalized growth alone. Strictly below 1: label 1. Equal to or above 1: label 0.

- entrySmiles: "Cc1ncc(CNC(=O)N(CCCl)N=O)c(N)n1"
  labelClass: "label 0"

Here's the next entry for you.
Q. Just wondering, is normalized growth of `OCCc1ccccc1` below 1?
A. label 1

* * *

Assay: chemical genetic growth profiling, strain panel (AID 1159580)
Details: S. cerevisiae deletion strains, growth OD, locus YHR027C, strain rpn1, stronger effect = lower value
Out of some 5,500 compounds screened, about 2,000 (36%) were called active. Roughly 18% stayed inconclusive and do not appear here. This is one part of the list.
reportedProperty: normalized growth

The measured normalized growth associated with CN(C)CCOC(c1ccc(Cl)cc1)c1ccccn1 (stereo not drawn) reads 1.02 (inactive)

The measured normalized growth associated with CO/N=C1/CN(c2nc3c(cc2F)c(=O)c(C(=O)O)cn3C2CC2)CC1CN (stereo not drawn) reads 1 (inactive)

The measured normalized growth associated with Clc1ccc(C(OCCN2CCCCC2)c2ccccc2)cc1 (stereo not drawn) reads 1.03 (inactive)

* * *

Form field: normalized growth (one value per entry).
Assay: chemical genetic growth profiling, strain panel (AID 1159580)
Details: S. cerevisiae deletion strains, growth OD, locus YCL011C, strain gbp2, stronger effect = lower value
Out of some 5,500 compounds screened, about 2,000 (36%) were called active. Inconclusive results (about 18%) are left out. This is one part of the list.
// keep it numeric: no unit symbol after the value

These recorded examples may help you get a feel for the data.
- compound: "C=CC[C@]1(O)CCC2C3CCC4=CC(=O)CCC4=C3C=C[C@@]21C (stereo not given in full)"
  reportedProperty: "normalized growth"
  quantitativeResult: 1.01
- compound: "CC#CC1(O)CCC2C3CCC4=CC(=O)CCC4=C3C(c3ccc(N(C)C)cc3)CC21C (stereo not given)"
  reportedProperty: "normalized growth"
  quantitativeResult: 1
- compound: "CN1C2C[C@H](OC(=O)[C@H](CO)c3ccccc3)C[C@H]1[C@@H](O)C2"
  reportedProperty: "normalized growth"
  quantitativeResult: 1.01
- compound: "COC(=O)[C@@H]1OC(=O)C2OC23[C@@]1(C)CCC1[C@]2(C)C(C[C@H](O)[C@]13C)C(C)(C)[C@H](OC(C)=O)C[C@@H]2OC(C)=O (stereo not given in full)"
  reportedProperty: "normalized growth"
  quantitativeResult: 1

Query compound follows.
The measured normalized growth associated with c1ccc2c(c1)CCCC2C1=NCCN1 (stereo not given) reads 1.02

* * *

Assay: chemical genetic growth profiling, strain panel (AID 1159580)
Settings: S. cerevisiae deletion strains, growth OD, locus YPL055C, strain LGE1
In all, about 5,500 compounds went through this assay and about 2,000 (36%) were called active. Inconclusive results (about 18%) are left out. No stated cut-off is given here; in the data, active means normalized growth mostly below about 0.91 (no sharp cut-off); inconclusive means no clear call, values can overlap the other calls; inactive means mostly above about 0.92. This is one part of the list.
Lab note: assign the record to one of true (1) = active, false (0) = inactive

Some solved cases for reference:
- compound: "CC[C@H]1OC(=O)[C@H](C)[C@@H](O[C@H]2C[C@@](C)(OC)[C@@H](O)[C@H](C)O2)[C@H](C)[C@@H](O[C@@H]2O[C@H](C)C[C@H](N(C)C)[C@H]2O)[C@](C)(OC)C[C@@H](C)C(=O)[C@H](C)[C@@H](O)[C@]1(C)O"
  labelClass: "false (0)"
- compound: "COc1ccc2c(c1)OC/C(=C\\c1ccc(OC)c(O)c1)C2=O"
  labelClass: "true (1)"
- compound: "CC1CCc2cc(F)cc3c(=O)c(C(=O)O)cn1c23 (configuration not stated)"
  labelClass: "false (0)"
- compound: "Clc1ccc(C(c2ccc(Cl)cc2)C(Cl)(Cl)Cl)cc1"
  labelClass: "false (0)"
- compound: "C=C[C@@](C)(O)CCC1C(=C)C[C@H](O)C2C(C)(C)CCCC12C (some centres not stated)"
  labelClass: "false (0)"
- compound: "COc1ccc(C(c2ccc(OC)cc2)C(Cl)(Cl)Cl)cc1"
  labelClass: "false (0)"

Q. Identify the outcome logged in this assay for the compound shown: CNC(=O)[C@H]1O[C@@H](n2cnc3c(NCc4cccc(I)c4)ncnc32)C(O)[C@H]1O (some centres not stated)
A. false (0)

* * *

Assay: chemical genetic growth profiling, strain panel (AID 1159580)
Conditions: S. cerevisiae deletion strains, growth OD, locus YER155C, strain BEM2 (second series), stronger effect = lower value
Screen size: about 5,500 compounds; about 2,000 (36%) were called active. About 18% were inconclusive and are not listed. This is one part of the list.
reportedProperty: normalized growth
// keep it numeric: no unit symbol after the value

The measured normalized growth associated with CN1C2CCC1CC(OC(c1ccccc1)c1ccccc1N)C2 (configuration not stated) reads 0.988

The measured normalized growth associated with `OCCc1ccccc1` reads 0.975

The measured normalized growth associated with COC(=O)C1=COC(OC2OC(CO)C(O)C(O)C2O)C2C(C)CC(=O)C12 (configuration not stated) reads 1.02

The measured normalized growth associated with `CN1CC(=O)N=C1N` reads 1.06

The measured normalized growth associated with OCC(O)CN1CCN(c2ccccc2)CC1 (configuration not stated) reads 1

The measured normalized growth associated with `O=C(Oc1cc(O)cc2c1C[C@@H](OC(=O)c1cc(O)c(O)c(O)c1)[C@@H](c1cc(O)c(O)c(O)c1)O2)c1cc(O)c(O)c(O)c1` reads 0.975

The measured normalized growth associated with `Nc1ncn[nH]1` reads 1.04

* * *

Test: chemical genetic growth profiling, strain panel (AID 1159580);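 note: tested at 20 µM; growth read once vehicle control cultures reached saturation at 30 °C; 1 = growth at the plate median or of vehicle wells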
Conditions: S. cerevisiae deletion strains, growth OD, locus YNL197C, strain WHI3, stronger effect = lower value
About 2,000 (36%) of roughly 5,500 compounds were called active. Roughly 18% stayed inconclusive and do not appear here. The list shows a part of the results.
reportedProperty: normalized growth
// keep it numeric: no unit symbol after the value

- compound: "Cc1sc2ccccc2c1CC1=NCCN1"
  normalized growth: 1
- compound: "C[C@H](Cc1ccccc1)Nc1ncnc2c1ncn2[C@@H]1O[C@H](CO)[C@H](O)C1O (stereo partly drawn)"
  normalized growth: 0.99
- compound: "CC[N+](CC)(CC)CC"
  normalized growth: 1.01
- compound: "O=C(/C=C/c1ccc(O)c(O)c1)OCCc1ccccc1"
  normalized growth: 0.897
- compound: "CNCC[C@H](Oc1ccc(C(F)(F)F)cc1)c1ccccc1"
  normalized growth: 0.988
- compound: "O=C(O)/C=C/c1ccc(O)c(O)c1"
  normalized growth: 1.01
- compound: "Cc1ncc(CNC(=O)N(CCCl)N=O)c(N)n1"
  normalized growth: 0.999
- compound: "COc1ccc(C2CNC(=O)C2)cc1OC1CCCC1 (stereo not drawn)"
  normalized growth: 1.01
- compound: "COC(=O)C1C(O)CCC2CN3CCc4c([nH]c5ccccc45)C3CC21 (stereo not drawn)"
  normalized growth: 0.995
- compound: "O=C1NC(=O)C(c2ccccc2)(c2ccccc2)N1"
  normalized growth: 1.01

The measured normalized growth associated with `Nc1cc(=O)[nH]c(N)n1` reads 0.987

The measured normalized growth associated with CCCCCCCCCCCCCCCCCCNC(=O)OCC(COP(=O)([O-])OCC[n+]1ccsc1)OC (stereo not drawn) reads 1.06

* * *

Test: chemical genetic growth profiling, strain panel (AID 1159580);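 note: tested at 20 µM; growth read once vehicle control cultures reached saturation at 30 °C; 1 = growth at the plate median or of vehicle wells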
Conditions: S. cerevisiae deletion strains, growth OD, locus YGL078C, strain dbp3, stronger effect = lower value
Among all 5,500 compounds or so, about 2,000 (36%) were called active. Another 18% or so got no clear call; they are omitted. The list shows a part of the results.
Decide using normalized growth alone. Strictly below 1: 1. Equal to or above 1: 0.

Some solved cases for reference:
- compound: "C=CCc1ccc(OC(=O)c2ccccc2)c(OC)c1"
  labelClass: 1
- compound: "C=C[C@@](C)(O)CCC1C(=C)CCC2[C@@](C)(CO)CCC[C@]12C (some centres not stated)"
  labelClass: 1

Here's the next entry for you.
Q. Just wondering, is normalized growth of C=C[C@@](C)(O)CCC1C(=C)C[C@H](OC(C)=O)C2C(C)(C)CCCC12C (some centres not stated) below 1?
A. 0

* * *

Form field: normalized growth (one value per entry).
Assay: chemical genetic growth profiling, strain panel (AID 1159580);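 note: tested at 20 µM; growth read once vehicle control cultures reached saturation at 30 °C; 1 = growth at the plate median or of vehicle wells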
Conditions: S. cerevisiae deletion strains, growth OD, locus YMR129W, stronger effect = lower value
Hit rate of the full screen: of about 5,500 compounds, about 2,000 (36%) were called active. Another 18% or so got no clear call; they are omitted. Some of the results follow.
// keep it numeric: no unit symbol after the value

- compound: "CN1C2C[C@H](OC(=O)[C@H](CO)c3ccccc3)C[C@H]1[C@@H](O)C2"
  reportedProperty: "normalized growth"
  quantitativeResult: 1.02

Query compound follows.
The measured normalized growth associated with CC(C)NCC(O)COc1cccc2[nH]ccc12 (stereo not drawn) reads 0.974
